The reported numbers originate from patent US20150368338A1.

Examples of binders with documented Kd follow.
# TEST_TARGET: T1, IFN-αC (human, UniProt P01566 24-189)
# T1 construct: also called IFN-α10; alpha C
# PROTOCOL_DETAILS: ProteOn, one antigen concentration
Your answer is read as nM, so omit the unit and give the number.

BINDER | UNIT_ABBREV | Kd
IFWM3343 (antibody, V domains shown, VH IFWH624, VL IFWL997; converted mAb; also called IFWB3078) VH: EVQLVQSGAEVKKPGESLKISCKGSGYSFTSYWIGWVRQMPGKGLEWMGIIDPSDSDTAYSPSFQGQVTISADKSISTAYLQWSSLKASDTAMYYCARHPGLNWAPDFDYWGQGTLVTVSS VL: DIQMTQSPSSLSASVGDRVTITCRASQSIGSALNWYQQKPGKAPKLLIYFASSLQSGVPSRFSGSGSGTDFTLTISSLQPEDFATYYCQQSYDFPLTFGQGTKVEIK | nM | 0.065

Kd reading for IFWM3321 (antibody, V domains shown, VH IFWH591, VL IFWL1048; converted mAb; also called IFWB3056) VH: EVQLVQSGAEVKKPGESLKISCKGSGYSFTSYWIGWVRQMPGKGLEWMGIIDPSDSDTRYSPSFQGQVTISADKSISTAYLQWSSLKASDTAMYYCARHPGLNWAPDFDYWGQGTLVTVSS VL: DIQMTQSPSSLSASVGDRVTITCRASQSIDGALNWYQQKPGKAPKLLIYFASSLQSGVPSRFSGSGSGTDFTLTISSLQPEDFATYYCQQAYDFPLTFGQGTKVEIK : 0.033

Kd reading for IFWM3351 (antibody, V domains shown, VH IFWH624, VL IFWL1010; converted mAb; also called IFWB3086) VH: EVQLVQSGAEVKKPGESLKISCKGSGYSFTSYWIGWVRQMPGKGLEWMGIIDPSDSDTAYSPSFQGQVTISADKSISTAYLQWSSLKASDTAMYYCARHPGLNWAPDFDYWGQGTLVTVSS VL: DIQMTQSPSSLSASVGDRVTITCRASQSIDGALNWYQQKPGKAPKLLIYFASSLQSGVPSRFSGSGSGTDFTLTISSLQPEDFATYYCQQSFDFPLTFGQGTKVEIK : 0.048

Kd reading for IFWM3302 (antibody, V domains shown, VH IFWH591, VL IFWL991; converted mAb; also called IFWB3037) VH: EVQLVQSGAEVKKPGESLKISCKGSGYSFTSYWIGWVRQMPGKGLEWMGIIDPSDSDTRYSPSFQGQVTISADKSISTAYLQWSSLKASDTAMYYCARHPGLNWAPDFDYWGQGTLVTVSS VL: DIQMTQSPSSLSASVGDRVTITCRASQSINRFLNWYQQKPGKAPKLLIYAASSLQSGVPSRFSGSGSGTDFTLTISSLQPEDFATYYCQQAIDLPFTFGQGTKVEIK : 0.083

Kd reading for IFWM3349 (antibody, V domains shown, VH IFWH624, VL IFWL1007; converted mAb; also called IFWB3084) VH: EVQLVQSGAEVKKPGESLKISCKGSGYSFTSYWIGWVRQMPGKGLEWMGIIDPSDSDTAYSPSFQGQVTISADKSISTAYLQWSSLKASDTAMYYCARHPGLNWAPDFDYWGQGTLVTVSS VL: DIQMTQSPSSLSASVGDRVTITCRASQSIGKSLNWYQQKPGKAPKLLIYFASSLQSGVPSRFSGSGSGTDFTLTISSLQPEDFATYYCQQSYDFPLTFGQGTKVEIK : 0.056
